Numbers sourced from patent US5736356A.

# System Tested: purified transglutaminase originating from Crassostrea gigas (Magallana gigas)
# Construct: Met-less mature form starts […]; recombinant enzyme from E. coli or yeast reported equivalent
# Sequence (A0A8W8K4D7 entry or part of it with the stated changes): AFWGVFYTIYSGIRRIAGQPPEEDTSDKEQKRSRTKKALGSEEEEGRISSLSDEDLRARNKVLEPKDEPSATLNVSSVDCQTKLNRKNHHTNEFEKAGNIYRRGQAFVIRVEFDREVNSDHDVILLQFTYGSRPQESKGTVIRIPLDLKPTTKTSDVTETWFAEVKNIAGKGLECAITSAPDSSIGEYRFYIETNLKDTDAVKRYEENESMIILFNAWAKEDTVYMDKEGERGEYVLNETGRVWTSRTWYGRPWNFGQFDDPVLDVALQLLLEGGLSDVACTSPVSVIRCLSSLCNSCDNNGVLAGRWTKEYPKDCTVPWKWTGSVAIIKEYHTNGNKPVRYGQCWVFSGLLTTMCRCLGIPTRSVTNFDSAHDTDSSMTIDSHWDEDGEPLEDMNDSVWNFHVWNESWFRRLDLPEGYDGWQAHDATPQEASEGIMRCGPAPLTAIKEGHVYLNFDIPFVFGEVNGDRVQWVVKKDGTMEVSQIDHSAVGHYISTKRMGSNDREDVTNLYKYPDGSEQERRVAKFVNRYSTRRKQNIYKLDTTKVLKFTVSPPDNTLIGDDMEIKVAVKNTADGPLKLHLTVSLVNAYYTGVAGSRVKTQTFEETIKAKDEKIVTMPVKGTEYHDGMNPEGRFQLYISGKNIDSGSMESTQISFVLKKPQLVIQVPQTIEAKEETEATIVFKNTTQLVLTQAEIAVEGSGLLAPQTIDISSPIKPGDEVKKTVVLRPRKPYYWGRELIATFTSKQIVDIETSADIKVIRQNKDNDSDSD
# Assay type: biochemical
# Test Parameters: final concentration 1 mM, treated at 25° C. for 10 minutes, reaction 37° C. 30 minutes
Parameter: Residual Activity (%)
One number for each entry, in %.

Example molecules with recorded Residual Activity:
# Molecule, Value Measured
measured = [
    ("[Mg+2] [Mg^2+]", 98.2),
    ("[Cu+2] [Cu^2+]", 8.8),
]

Each molecule below has a recorded value; state its Residual Activity.
1. [Mn+2] [Mn^2+]
2. [Co+2] [Co^2+]
3. [Zn+2] [Zn^2+]
4. [Ba+2] [Ba^2+]

-- reply
1: 84.7; 2: 54.3; 3: 65.0; 4: 102
